- study.target: TRPML3 (Homo sapiens, UniProt Q8TDD5)
- Construct: expressed in transfected cells
- Sequence (Q8TDD5 whole entry): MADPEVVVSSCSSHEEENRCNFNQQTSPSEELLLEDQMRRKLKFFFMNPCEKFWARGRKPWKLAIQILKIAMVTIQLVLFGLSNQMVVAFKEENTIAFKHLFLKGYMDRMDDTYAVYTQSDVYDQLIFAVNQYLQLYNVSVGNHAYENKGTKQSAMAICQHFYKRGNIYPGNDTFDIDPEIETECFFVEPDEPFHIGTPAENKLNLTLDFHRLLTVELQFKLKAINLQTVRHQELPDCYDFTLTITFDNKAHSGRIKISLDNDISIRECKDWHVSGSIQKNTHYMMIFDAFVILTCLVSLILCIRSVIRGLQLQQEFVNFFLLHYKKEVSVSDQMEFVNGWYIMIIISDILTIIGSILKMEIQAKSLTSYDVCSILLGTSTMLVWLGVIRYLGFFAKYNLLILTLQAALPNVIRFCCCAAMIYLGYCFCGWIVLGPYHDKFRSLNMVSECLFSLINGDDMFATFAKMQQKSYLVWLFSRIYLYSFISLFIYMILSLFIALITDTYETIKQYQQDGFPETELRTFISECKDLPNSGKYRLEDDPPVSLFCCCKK
- protocol.details: Fluorescent TRPML3 assay (performed as for TRPML1, substituting the TRPML3 subtype)
- Type: cell-based
- assay.setup: fluorescent calcium assay
reported.property: EC50

The molecule listed as CC(C)(C)OC(=O)N1CCN(c2ncnc3c2c(C2CC2)cn3-c2cc(C#N)ccn2)[C@H]2C[C@H]21 (single isomer, unassigned) [Compound 409] has a reported EC50 of < 100 nM

Entry C[C@H]1CN(C(=O)OC(C)(C)C)CCN1c1ncnc2c1c(N1CCCC1)cn2[C@@H]1C[C@@H]2CC[C@H]1C2 [Compound 406] ; EC50 = 500 to 2000 nM

Item: C[C@H]1CN(C(=O)OC(C)(C)C)CCN1c1ncnc2c1c(N1CCC(F)(F)C1)cn2-c1cccc(Cl)c1 [Compound 308] | EC50: < 100 nM

# molecule C[C@@H]1COCCN1c1cn(-c2cc(C#N)ccn2)c2ncnc(N3CCN(C(=O)OC(C)(C)C)C[C@@H]3C)c12 [Compound 419] ; its EC50 = < 100 nM

Given item CC(C)(C)OC(=O)N1CCN(c2ncnc3c2c(C2CC2)cn3-c2cc(F)cc(F)c2)C[C@@H]1C(F)F (single isomer, unassigned) [Compound 315] , the value recorded as its EC50 is 500 to 2000 nM

molecule C[C@H]1CN(C(=O)OC(C)(C)C)CCN1c1ncnc2c1c(N1CCCC1)cn2-c1cc(F)cc(F)c1 [Compound 253] , EC50 observed: < 100 nM

Lab book: EC50 of C[C@@H]1CN(c2ncnc3c2c(-c2ccccc2F)cn3-c2cc(C#N)ccn2)CCN1C(=O)OCC(F)(F)F [Compound 378] noted as < 100 nM

Sample C[C@@H]1CN(c2ncnc3c2c(-c2ccccc2F)cn3-c2cnn(C)c2)[C@@H](C)CN1C(=O)OCC(F)(F)F [Compound 254] ; EC50 observed: 100 to 500 nM

Lab book: EC50 of C[C@H]1CN(C(=O)OC(C)(C)C)CCN1c1ncnc2c1c(-c1cccnc1)cn2-c1cc(F)cc(F)c1 [Compound 213] noted as 100 to 500 nM

Form field EC50, entry CC(C)(C)OC(=O)N1CCCN(c2ncnc3c2c(C2CC2)cn3-c2cc(C#N)ccn2)CCC1 [Compound 482] : < 100 nM

// C[C@@H]1CN(c2ncnc3c2c(N2CCCC2)cn3-c2cccc(OC(F)(F)F)c2)CCN1C(=O)OC(C)(C)C [Compound 311] : EC50 value = < 100 nM

EC50 recorded for this molecule, C[C@H]1CN(C(=O)OC(C)(C)C)CCN1c1ncnc2c1c(-c1ccccc1F)cn2-c1ccccn1 [Compound 231] , is < 100 nM

Looking up C[C@H]1CN(C(=O)OC(C)(C)C)CCN1c1ncnc2c1c(N1CCCC1)cn2C12CCC(CC1)CC2 [Compound 383] , I see its EC50 listed as > 2000 nM

For this molecule ( C[C@@H]1CN(c2ncnc3c2c(N2CCC[C@H]2CO)cn3-c2cccc(Cl)c2)CCN1C(=O)OC(C)(C)C [Compound 283] ), measured EC50 is 100 to 500 nM

Sure, the documented EC50 for C[C@H]1CN(C(=O)OC(C)(C)C)CCN1c1ncnc2c1c(C1CC1)cn2C1CCC1 [Compound 398] is 100 to 500 nM

Form field EC50, entry CC(C)(C)OC(=O)N1CCN(c2ncnc3c2c(-c2ccccc2F)cn3-c2ncc(C#N)s2)CC1 [Compound 455] : < 100 nM

The value of EC50 measured for the molecule N#Cc1ccnc(-n2cc(-c3ccccc3F)c3c(N4CCN(C(=O)OCC(F)(F)F)CC4)ncnc32)c1 [Compound 373] turned out to be < 100 nM

In plain terms, C[C@H]1CN(C(=O)OC(C)(C)C)CCN1c1ncnc2c1c(C1CCCC1)cn2-c1cccc(Cl)c1 [Compound 158] has a documented EC50 of < 100 nM

Reported EC50 of Cc1ccnc(-n2cc(-c3ccccc3F)c3c(N4C[C@@H](C)N(C(=O)OC(C)(C)C)C[C@@H]4C)ncnc32)c1 [Compound 136] : < 100 nM

The recorded EC50 for CCc1nccnc1-c1cn(-c2cccc(Cl)c2)c2ncnc(N3CCN(C(=O)OC(C)(C)C)C[C@@H]3C)c12 [Compound 271] is 100 to 500 nM

What the record says about C[C@H]1CN(C(=O)OC(C)(C)C)CCN1c1ncnc2c1c(C1CC1)cn2-c1cccc(F)c1 [Compound 127] : EC50 is < 100 nM

According to the records, this molecule Cc1nccnc1-c1cn(-c2cc(F)cc(F)c2)c2ncnc(N3C[C@@H](C)N(C(=O)OC(C)(C)C)C[C@@H]3C)c12 [Compound 462] displays EC50 of < 100 nM

The measured EC50 associated with C[C@@H]1CN(c2ncnc3c2c(C2CC2)cn3-c2cccc(F)c2F)CCN1C(=O)OC(C)(C)C [Compound 205] reads 100 to 500 nM

Entry C[C@@H]1CN(c2ncnc3c2c(-c2cnccn2)cn3-c2cccc(Cl)c2)[C@@H](C)CN1C(=O)OC(C)(C)C [Compound 124] — recorded EC50 = 100 to 500 nM

EC50 reading for C[C@H]1CN(C(=O)OC(C)(C)C)CCN1c1ncnc2c1c(-c1ccccn1)cn2-c1ccc(F)c(Cl)c1 [Compound 154] : < 100 nM

molecule C[C@H]1CN(C(=O)OC(C)(C)C)CCN1c1ncnc2c1c(-c1ccccc1F)cn2-c1cnnc(C#N)c1 [Compound 448] , EC50 observed: < 100 nM

For this molecule ( C[C@H]1CN(C(=O)OC(C)(C)C)CCN1c1ncnc2c1c(N1CCC(C)(C)C1)cn2-c1cc(C#N)ccn1 [Compound 405] ), measured EC50 is < 100 nM

Value of measured EC50 for the entry C[C@@H]1CN(c2ncnc3c2c(-c2ccccn2)cn3-c2cc(F)cc(F)c2)CCN1C(=O)OC(C)(C)C [Compound 215] : 100 to 500 nM
